The origin of these recorded values is patent US20250243186A1.

// reported IC50 for each item listed
# TARGET_DESC: Recombinant human Factor B catalytic domain (Homo sapiens (Human))
# PROTOCOL_DETAILS: Factor B binding assay by TR-FRET
# CONDITION_LABEL: read-out: Factor B TR-FRET IC50; 10 nM his-tagged Factor B catalytic domain, 100 nM tracer, 1 h
PROPERTY_MEASURED: IC50

                           substance_smiles  result
0  [2H]C([2H])([2H])Oc1cc(C)c2[nH]ccc2c1CN1CCC2(C[C@H]1c1ccc(C(=O)O)cc1)CC(F)(F)C2  < 2 nM
1  CCc1cc(C)c2[nH]ccc2c1CN1CCC2(C[C@H]1c1ccc(C(=O)O)cc1)CC(F)(F)C2  < 2 nM
2  COc1cc(C)c2[nH]ccc2c1CN1CCC2(C[C@H]1c1ccc3c(C(=O)O)cccc3c1)CC(F)(F)C2  3.1 nM
3  COc1cc(C)c2[nH]ccc2c1CN1CCC2(C[C@H]1c1ccc(C(=O)O)c(F)c1)CC(F)(F)C2  < 2 nM

----------
# TARGET_DESC: Recombinant human Factor B catalytic domain (Homo sapiens (Human))
# PROTOCOL_DETAILS: Factor B binding assay by TR-FRET
# CONDITION_LABEL: Factor B TR-FRET IC50 (nM), 10 nM his-tagged Factor B catalytic domain, 100 nM tracer, 1 h
// reported IC50 for each item listed
PROPERTY_MEASURED: IC50 (nM)

>>> print(df.to_string())
                                   compound  property_measured  measured_number
0  COc1cc(C)c2[nH]ccc2c1CN1CCC2(CC1c1ccc(C(=O)O)cc1)CC2(F)F (single isomer, unassigned) [8 (Isomer 1)]               IC50                7
1  COc1cc(C)c2[nH]ccc2c1CN1CC2CC3(CC3)CC2C1c1ccc(C(=O)O)cc1 (single isomer, unassigned) [29 (Isomer 2)]               IC50             43.7
2  COc1cc(C)c2[nH]ccc2c1CN1CCC2(CCC1c1ccc(C(=O)O)cc1)CC2(F)F (single isomer, unassigned) [24 (Isomer 1)]               IC50             1410

----------
# PROTOCOL_DETAILS: Ocular pharmacokinetic studies in rats
# Format: in vivo, brown Norway rats
# CONDITION_LABEL: Brown Norway, rat, 2 mg/kg, 2 mpk PO, retina, read-out: Retina AUC0-last
# Protocol: Three-month-old brown Norway rats were administered the Example compound via oral gavage as a suspension in 2 equiv 1 N HCl+30% PEG300+50% (20% Cremophor EL in water). […] The concentrations of the test article were measured in plasma and supernatants of ocular homogenates by HPLC-MS/MS in four individual retinas, four individual posterior eye cups, and two individual plasma samples at each time point. […]
PROPERTY_MEASURED: AUC(0-t)

>>> df
                                   compound     result
0  COc1cc(C)c2[nH]ccc2c1CN1CCC2(CC1c1ccc(C(=O)O)cc1)CC2(F)F (single isomer, unassigned) [8 (Isomer 1)]  2.23 µM·h

----------
# TARGET_DESC: Recombinant human Factor B catalytic domain (Homo sapiens (Human), UniProt P00751)
# Sequence (P00751 470-764): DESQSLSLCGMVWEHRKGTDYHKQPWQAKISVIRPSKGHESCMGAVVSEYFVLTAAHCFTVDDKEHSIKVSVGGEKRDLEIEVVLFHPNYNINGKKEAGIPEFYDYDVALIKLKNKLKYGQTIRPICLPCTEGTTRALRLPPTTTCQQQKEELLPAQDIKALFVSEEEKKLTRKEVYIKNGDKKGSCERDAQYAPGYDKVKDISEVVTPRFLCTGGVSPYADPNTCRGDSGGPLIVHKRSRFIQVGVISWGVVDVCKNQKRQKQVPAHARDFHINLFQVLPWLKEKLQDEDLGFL
# PROTOCOL_DETAILS: Factor B binding assay by TR-FRET
# CONDITION_LABEL: read-out: Factor B TR-FRET IC50; 10 nM his-tagged Factor B catalytic domain, 100 nM tracer, 1 h
PROPERTY_MEASURED: IC50

                                   compound  result
0  Cc1cc(C(=O)O)ccc1[C@@H]1CC2(CCN1Cc1c(C3CC3)cc(C)c3[nH]ccc13)CC(F)(F)C2  < 2 nM
1  Cc1cc(C2CC2)c(CN2CCC3(C[C@H]2c2ccc(C(=O)O)cc2)CC(F)(F)C3)c2cc[nH]c12  < 2 nM
2  COc1cc(C)c2[nH]ccc2c1CN1CCC2(C[C@H]1c1ccc(C(=O)O)c3ccccc13)CC(F)(F)C2  < 2 nM
3  Cc1cc(Br)c(CN2CCC3(C[C@H]2c2ccc(C(=O)O)cc2)CC(F)(F)C3)c2cc[nH]c12 (single isomer, unassigned) [78 (Isomer 1)]  7.4 nM
4  COc1cc(C)c2[nH]ccc2c1CN1CC(CF)CC1c1ccc(C(=O)O)cc1 (stereo not shown)  844 nM
5  Cc1cc(C)c2[nH]ccc2c1CN1CCC2(C[C@H]1c1ccc(C(=O)O)cc1)CC(F)(F)C2 (single isomer, unassigned) [76 (Isomer 1)]  < 2 nM
6  COc1cc(C)c2[nH]ccc2c1CN1CCC2(C[C@H]1c1ccc(C(=O)O)cc1C)CC(F)(F)C2  < 2 nM

----------
// reported IC50 for each item listed
# TARGET_DESC: Recombinant human Factor B catalytic domain (Homo sapiens (Human), UniProt P00751)
# PROTOCOL_DETAILS: Factor B binding assay by TR-FRET
# CONDITION_LABEL: Factor B TR-FRET IC50 (nM), 10 nM his-tagged Factor B catalytic domain, 100 nM tracer, 1 h
PROPERTY_MEASURED: IC50 (nM)

>>> print(df.to_string())
                                   compound  measured_number
0  COc1cc(C)c2[nH]ccc2c1CN1CC2CCCC2C1c1ccc(C(=O)O)cc1 (single isomer, unassigned) [13 (Isomer 1)]             17.4
1  Cc1cc(C)c2[nH]ccc2c1CN1C[C@@H]2CCCC2C1c1ccc(C(=O)O)cc1 (single isomer, unassigned) [9 (Isomer 2)]             40.6
2  COc1cc(C)c2[nH]ccc2c1CN1CC2CC(C(F)F)CC2C1c1ccc(C(=O)O)cc1 (single isomer, unassigned) [39 (Isomer 1)]              2.6

----------
# PROTOCOL_DETAILS: Ocular pharmacokinetic studies in rats
# Type: in vivo, brown Norway rats
# CONDITION_LABEL: Brown Norway, rat, 2 mg/kg, 2 mpk PO, plasma, read-out: Plasma AUC0-last
PROPERTY_MEASURED: AUC(0-t) (µM·h)

>>> print(df.to_string())
                                   molecule  measured_number
0  COc1cc(C)c2[nH]ccc2c1CN1CCC2(CC1c1ccc(C(=O)O)cc1)CC2(F)F (single isomer, unassigned) [8 (Isomer 1)]             10.8

----------
// reported Kd for each item listed
# TARGET_DESC: Recombinant human Factor B catalytic domain (Homo sapiens (Human), UniProt P00751)
# PROTOCOL_DETAILS: biochemical
PROPERTY_MEASURED: Kd (nM)

In [3]: df
Out[3]:
                                   compound  measured_number
0  COc1cc(C)c2[nH]ccc2c1CN1CCC2(CC1c1ccc(C(=O)O)cc1)CC2F (single isomer, unassigned) [27 (Isomer 1)]             6.25
1  COc1cc(C)c2[nH]ccc2c1CN1CCC2(C[C@H]1c1ccc(-c3noc(=O)[nH]3)cc1)CC(F)(F)C2 (single isomer, unassigned) [47 (Isomer 1)]             0.53
2  COc1cc(C)c2[nH]ccc2c1CN1CCC2(CC1c1ccc(C(=O)O)cc1)CC2F (single isomer, unassigned) [27 (Isomer 2)]             4.25
3  COc1cc(C)c2[nH]ccc2c1CN1CC2CC3(CC3)CC2C1c1ccc(C(=O)O)cc1 (single isomer, unassigned) [29 (Isomer 1)]             7.03

----------
// reported Residence time for each item listed
# TARGET_DESC: Recombinant human Factor B catalytic domain (Homo sapiens (Human))
# PROTOCOL_DETAILS: Target residence time of Factor B inhibitors by surface plasmon resonance (SPR)
# CONDITION_LABEL: 1/koff
PROPERTY_MEASURED: Residence time (s)

In [3]: df
Out[3]:
                                   molecule                               target_desc  unit_abbreviation  measured_number
0  COc1cc(C)c2[nH]ccc2c1CN1CCC2(CC1c1ccc(C(=O)O)cc1)CC2F (single isomer, unassigned) [27 (Isomer 1)]  Recombinant human Factor B catalytic domain (Homo sapiens (Human))                  s            191.4
1  COc1cc(C)c2[nH]ccc2c1CN1CCC2(C[C@H]1c1ccc(-c3noc(=O)[nH]3)cc1)CC(F)(F)C2 (single isomer, unassigned) [47 (Isomer 1)]  Recombinant human Factor B catalytic domain (Homo sapiens (Human))                  s             4130
2  COc1cc(C)c2[nH]ccc2c1CN1CCC2(CC1c1ccc(C(=O)O)cc1)CC2F (single isomer, unassigned) [27 (Isomer 2)]  Recombinant human Factor B catalytic domain (Homo sapiens (Human))                  s            308.9
3  COc1cc(C)c2[nH]ccc2c1CN1CC2CC3(CC3)CC2C1c1ccc(C(=O)O)cc1 (single isomer, unassigned) [29 (Isomer 1)]  Recombinant human Factor B catalytic domain (Homo sapiens (Human))                  s            236.4
